- assay_system: UniProtKB P25021
- Sequence (P25021 whole entry): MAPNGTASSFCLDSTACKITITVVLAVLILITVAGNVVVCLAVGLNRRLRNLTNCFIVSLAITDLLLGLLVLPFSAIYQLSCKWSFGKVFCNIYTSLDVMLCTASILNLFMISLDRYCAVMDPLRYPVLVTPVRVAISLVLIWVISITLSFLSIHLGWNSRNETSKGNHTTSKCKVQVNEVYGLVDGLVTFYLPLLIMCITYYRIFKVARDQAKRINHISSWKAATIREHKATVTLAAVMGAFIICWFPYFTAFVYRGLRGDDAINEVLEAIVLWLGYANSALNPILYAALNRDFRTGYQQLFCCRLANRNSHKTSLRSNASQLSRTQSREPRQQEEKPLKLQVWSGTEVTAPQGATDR
- Format: functional, cell-based
parameter_measured: AC50

Here is how some compounds turned out for AC50.
CC[C@H]1[C@@H](O)[C@@H]2[C@H](CC[C@]3(C)[C@@H]([C@H](C)CCC(=O)O)CC[C@@H]23)[C@@]2(C)CC[C@@H](O)C[C@@H]12 : > 30 µM
COc1ccccc1N1CCN(CCCNc2cc(=O)n(C)c(=O)n2C)CC1 : > 30 µM

Now for a further compound.
[Q] Requested read-out: AC50. Entry: `C#C[C@]1(O)CC[C@H]2[C@@H]3CCC4=Cc5oncc5C[C@]4(C)[C@H]3CC[C@@]21C`
[A] > 10 µM

* * *

- assay_system: UniProtKB P06401
- Format: functional
Reported AC50 values for a set of compounds

Here is how some compounds turned out for AC50.
Nc1nc(NC2CC2)c2ncn([C@H]3C=C[C@@H](CO)C3)c2n1 [ABACAVIR] : > 30 µM
CCc1c(Cl)c(O)c(Cl)c(O)c1C(=O)O[C@H]1[C@H](O)[C@H](OC)[C@H](OC/C2=C\C=C\C[C@H](O)/C(C)=C/[C@H](CC)[C@@H](O[C@@H]3OC(C)(C)[C@@H](OC(=O)C(C)C)[C@H](O)[C@@H]3O)/C(C)=C/C(C)=C/C[C@@H]([C@@H](C)O)OC2=O)O[C@@H]1C [FIDAXOMICIN] : > 30 µM

[Q] Requested read-out: AC50. Entry: CC(=O)NCCCS(=O)(=O)O [ACAMPROSATE]
[A] > 30 µM

* * *

Reported AC50 values for a set of molecules
- assay_system: Progesterone receptor (Homo sapiens, UniProt P06401); note: assay procedure not described here
- Sequence (P06401 whole entry): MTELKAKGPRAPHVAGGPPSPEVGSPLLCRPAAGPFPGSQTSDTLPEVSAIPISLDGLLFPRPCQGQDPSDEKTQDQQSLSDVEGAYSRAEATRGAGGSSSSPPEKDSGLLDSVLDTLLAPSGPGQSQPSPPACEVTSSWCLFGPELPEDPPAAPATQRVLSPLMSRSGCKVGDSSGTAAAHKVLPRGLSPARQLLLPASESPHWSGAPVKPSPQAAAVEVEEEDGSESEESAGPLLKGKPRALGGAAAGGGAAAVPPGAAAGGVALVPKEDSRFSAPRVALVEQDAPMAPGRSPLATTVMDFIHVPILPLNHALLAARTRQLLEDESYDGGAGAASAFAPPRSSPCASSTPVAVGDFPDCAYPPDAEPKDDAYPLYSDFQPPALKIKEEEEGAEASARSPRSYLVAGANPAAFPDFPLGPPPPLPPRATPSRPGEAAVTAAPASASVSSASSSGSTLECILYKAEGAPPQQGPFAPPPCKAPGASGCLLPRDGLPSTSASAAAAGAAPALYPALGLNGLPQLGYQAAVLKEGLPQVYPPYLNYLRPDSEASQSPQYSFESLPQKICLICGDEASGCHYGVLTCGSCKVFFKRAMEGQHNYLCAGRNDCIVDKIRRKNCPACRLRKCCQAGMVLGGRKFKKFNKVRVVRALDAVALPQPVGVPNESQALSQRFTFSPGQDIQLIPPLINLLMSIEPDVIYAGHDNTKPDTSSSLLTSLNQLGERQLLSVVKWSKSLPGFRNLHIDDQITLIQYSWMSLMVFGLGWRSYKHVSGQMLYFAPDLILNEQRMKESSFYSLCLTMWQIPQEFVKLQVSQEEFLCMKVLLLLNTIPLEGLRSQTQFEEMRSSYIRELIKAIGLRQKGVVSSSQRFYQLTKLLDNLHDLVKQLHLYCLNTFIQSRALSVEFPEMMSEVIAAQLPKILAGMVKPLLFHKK
- Type: functional

CNC1Cc2ccccc2N(C)c2ccccc21 (stereo not given) : > 30 µM

[Q] Requested read-out: AC50. Entry: `C[C@](N)(Cc1ccc(O)c(O)c1)C(=O)O`
[A] > 30 µM

[Q] Requested read-out: AC50. Entry: CCOC(=O)OC(C)OC1=C(C(=O)Nc2ccccn2)N(C)S(=O)(=O)c2ccccc21 (stereo not given)
[A] > 30 µM

[Q] Requested read-out: AC50. Entry: `O=C1C(O)=C([C@H]2CC[C@H](c3ccc(Cl)cc3)CC2)C(=O)c2ccccc21`
[A] > 30 µM

[Q] Requested read-out: AC50. Entry: `Cc1cccc(Nc2ccccc2C(=O)O)c1C`
[A] > 10 µM

[Q] Requested read-out: AC50. Entry: `N[C@@H]1[C@H]2CN(c3nc4c(cc3F)c(=O)c(C(=O)O)cn4-c3ccc(F)cc3F)C[C@@H]12`
[A] > 30 µM

* * *

- assay_system: UniProt Q14432
- Sequence (Q14432 whole entry): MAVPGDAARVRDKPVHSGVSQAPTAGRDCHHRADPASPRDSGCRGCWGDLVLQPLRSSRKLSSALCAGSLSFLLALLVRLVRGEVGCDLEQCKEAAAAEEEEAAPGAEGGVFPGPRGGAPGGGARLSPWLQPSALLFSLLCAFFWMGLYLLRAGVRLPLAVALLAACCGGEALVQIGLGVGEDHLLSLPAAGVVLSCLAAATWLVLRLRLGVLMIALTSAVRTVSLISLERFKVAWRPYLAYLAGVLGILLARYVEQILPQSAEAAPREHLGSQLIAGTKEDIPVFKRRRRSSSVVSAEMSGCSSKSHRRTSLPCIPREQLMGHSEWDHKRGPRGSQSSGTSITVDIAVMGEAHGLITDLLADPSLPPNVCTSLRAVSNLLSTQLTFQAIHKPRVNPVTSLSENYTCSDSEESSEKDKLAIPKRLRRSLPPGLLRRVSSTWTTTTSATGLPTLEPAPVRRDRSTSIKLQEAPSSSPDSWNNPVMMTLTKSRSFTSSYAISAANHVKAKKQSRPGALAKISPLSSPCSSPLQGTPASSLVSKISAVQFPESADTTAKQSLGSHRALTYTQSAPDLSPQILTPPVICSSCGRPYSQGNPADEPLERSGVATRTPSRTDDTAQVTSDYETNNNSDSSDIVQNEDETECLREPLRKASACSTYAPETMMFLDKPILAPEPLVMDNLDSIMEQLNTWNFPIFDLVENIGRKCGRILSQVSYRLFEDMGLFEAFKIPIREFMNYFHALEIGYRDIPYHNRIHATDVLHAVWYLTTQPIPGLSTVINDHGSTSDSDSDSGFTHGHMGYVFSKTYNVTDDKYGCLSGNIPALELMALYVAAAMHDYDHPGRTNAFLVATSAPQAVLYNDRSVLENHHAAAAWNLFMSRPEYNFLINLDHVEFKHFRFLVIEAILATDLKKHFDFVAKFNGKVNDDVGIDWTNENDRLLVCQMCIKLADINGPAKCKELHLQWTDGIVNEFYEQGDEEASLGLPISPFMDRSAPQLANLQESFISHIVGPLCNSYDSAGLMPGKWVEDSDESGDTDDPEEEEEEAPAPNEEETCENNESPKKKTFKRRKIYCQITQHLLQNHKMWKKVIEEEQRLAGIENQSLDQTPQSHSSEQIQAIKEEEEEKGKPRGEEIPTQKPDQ
- Type: functional
parameter_measured: AC50

Here is how some compounds turned out for AC50.
COC(=O)C1=C(C)NC(C)=C(C(=O)OC2CCCN(Cc3ccccc3)C2)C1c1cccc([N+](=O)[O-])c1 (centres undefined) : 4.2 µM
C[C@@H](O)[C@H]1C(=O)N2C(C(=O)O)=C(S[C@@H]3CN[C@H](C(=O)N(C)C)C3)[C@H](C)[C@H]12 : > 300 µM
CC(C)(C)C(=O)Oc1ccc(S(=O)(=O)Nc2ccccc2C(=O)NCC(=O)O)cc1 : > 30 µM

Now for a further compound.
[Q] Requested read-out: AC50. Entry: Fc1ccc(C(c2ccccc2)(c2ccccc2F)n2ccnc2)cc1 (centres undefined)
[A] > 30 µM

* * *

- assay_system: UniProt P41145
- Sequence (P41145 whole entry): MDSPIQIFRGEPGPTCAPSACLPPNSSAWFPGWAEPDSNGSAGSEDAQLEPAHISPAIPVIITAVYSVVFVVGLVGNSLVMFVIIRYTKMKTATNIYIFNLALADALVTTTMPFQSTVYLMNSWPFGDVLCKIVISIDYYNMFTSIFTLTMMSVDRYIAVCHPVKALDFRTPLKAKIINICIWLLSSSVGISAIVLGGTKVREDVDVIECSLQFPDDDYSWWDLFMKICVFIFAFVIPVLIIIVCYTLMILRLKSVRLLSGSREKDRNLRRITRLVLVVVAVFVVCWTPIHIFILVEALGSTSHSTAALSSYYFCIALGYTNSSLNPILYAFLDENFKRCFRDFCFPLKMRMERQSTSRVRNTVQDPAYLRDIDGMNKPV
Reported AC50 values for a set of molecules

C[C@](N)(Cc1ccc(O)c(O)c1)C(=O)O : > 10 µM

[Q] // map `CCCSc1ccc2nc(NC(=O)OC)[nH]c2c1` to recorded AC50 (system: UniProt P41145)
[A] > 10 µM

[Q] // map `CC[C@H]1[C@@H](O)[C@@H]2[C@H](CC[C@]3(C)[C@@H]([C@H](C)CCC(=O)O)CC[C@@H]23)[C@@]2(C)CC[C@@H](O)C[C@@H]12` to recorded AC50 (system: UniProt P41145)
[A] > 30 µM

[Q] // map `CC(=O)O[C@H]1C[C@@H]2CC[C@@H]3[C@H](CC[C@@]4(C)[C@H]3C[C@H]([N+]3(C)CCCCC3)[C@@H]4OC(C)=O)[C@@]2(C)C[C@@H]1N1CCCCC1` to recorded AC50 (system: UniProt P41145)
[A] > 30 µM

[Q] // map `CN1C(=O)OC(C)(C)C1=O` to recorded AC50 (system: UniProt P41145)
[A] > 10 µM

[Q] // map `CC(C)=CCC/C(C)=C/C=C/C(C)=C/C=C/C(C)=C/C=C/C=C(C)/C=C/C=C(C)/C=C/C=C(\C)CCC=C(C)C` to recorded AC50 (system: UniProt P41145)
[A] > 30 µM

* * *

- assay_system: Adenosine receptor A3 (Homo sapiens); note: assay procedure not described here
- Sequence (P0DMS8 whole entry): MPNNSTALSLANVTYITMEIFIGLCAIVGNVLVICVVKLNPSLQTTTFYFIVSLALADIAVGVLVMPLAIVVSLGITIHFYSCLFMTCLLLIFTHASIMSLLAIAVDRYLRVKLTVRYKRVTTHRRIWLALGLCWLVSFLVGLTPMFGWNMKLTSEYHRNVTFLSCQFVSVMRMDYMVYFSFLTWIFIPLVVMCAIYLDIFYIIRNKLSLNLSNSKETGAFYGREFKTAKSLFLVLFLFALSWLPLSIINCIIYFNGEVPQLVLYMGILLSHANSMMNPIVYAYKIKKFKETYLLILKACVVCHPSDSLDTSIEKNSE
parameter_measured: AC50

C[C@]12CC[C@H]3[C@@H](CCC4=CC(=O)CC[C@@]43C)[C@@H]1CC[C@@H]2O : > 10 µM
COc1cc2c(N)nc(N3CCN(C(=O)OCC(C)(C)O)CC3)nc2c(OC)c1OC : > 30 µM
CN(C)/N=N/c1[nH]cnc1C(N)=O : > 10 µM

[Q] // map `Nc1ccn([C@H]2CC[C@@H](CO)O2)c(=O)n1` to recorded AC50 (system: Adenosine receptor A3 (Homo sapiens)); note: assay procedure not described here
[A] > 10 µM

[Q] // map Fc1ccc(C(c2ccccc2)(c2ccccc2F)n2ccnc2)cc1 (centres undefined) to recorded AC50 (system: Adenosine receptor A3 (Homo sapiens)); note: assay procedure not described here
[A] 15 µM

* * *

Observed AC50 values for Gamma-aminobutyric acid receptor subunit alpha-1 (Rattus norvegicus, UniProt P62813) are listed in what follows.

Here is how some compounds turned out for AC50.
O=C(O)CCCCCCCC(=O)O : > 10 µM
C[C@]12CC[C@H]3[C@@H](CCC4=CC(=O)CC[C@@]43C)[C@@H]1CC[C@@H]2O : > 10 µM
C[C@](N)(Cc1ccc(O)c(O)c1)C(=O)O : > 10 µM
CN1CCN(C2=Nc3ccccc3Sc3ccc(Cl)cc32)CC1 : > 30 µM

Now for a further compound.
[Q] Requested read-out: AC50. Entry: Cn1nnc2c(C(N)=O)ncn2c1=O [TEMOZOLOMIDE]
[A] > 10 µM

* * *

Observed AC50 values for UniProt:P30556 are listed in what follows.
Sequence (P30556 whole entry): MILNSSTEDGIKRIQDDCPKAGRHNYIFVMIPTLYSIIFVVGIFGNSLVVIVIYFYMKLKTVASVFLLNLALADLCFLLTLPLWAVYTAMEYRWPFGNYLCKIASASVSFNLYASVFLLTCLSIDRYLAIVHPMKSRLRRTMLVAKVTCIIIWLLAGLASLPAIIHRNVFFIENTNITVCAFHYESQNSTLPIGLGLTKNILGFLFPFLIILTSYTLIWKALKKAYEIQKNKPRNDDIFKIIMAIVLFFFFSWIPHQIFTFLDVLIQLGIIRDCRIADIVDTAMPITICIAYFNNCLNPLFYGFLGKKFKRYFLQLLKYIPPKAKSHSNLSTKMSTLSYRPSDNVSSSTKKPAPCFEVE

N[C@@H]1[C@H]2CN(c3nc4c(cc3F)c(=O)c(C(=O)O)cn4-c3ccc(F)cc3F)C[C@@H]12 [TROVAFLOXACIN] : > 30 µM
Clc1ccc(C(c2ccccc2Cl)C(Cl)Cl)cc1 (stereo not drawn) [MITOTANE] : > 10 µM
CCCCCNC(=N)N/N=C/c1c[nH]c2ccc(OC)cc12 [TEGASEROD] : 1.8 µM
C=CCN1C[C@H](C(=O)N(CCCN(C)C)C(=O)NCC)C[C@@H]2c3cccc4[nH]cc(c34)C[C@H]21 [CABERGOLINE] : > 10 µM
C#C[C@]1(O)CC[C@H]2[C@@H]3CCC4=Cc5oncc5C[C@]4(C)[C@H]3CC[C@@]21C [DANAZOL] : > 10 µM

[Q] // map CC(=O)NCCCS(=O)(=O)O [ACAMPROSATE] to recorded AC50 (system: UniProt:P30556)
[A] > 30 µM

[Q] // map CC1(C)NC(=O)N(c2ccc([N+](=O)[O-])c(C(F)(F)F)c2)C1=O [NILUTAMIDE] to recorded AC50 (system: UniProt:P30556)
[A] > 30 µM

[Q] // map C[N+]1(C)CCC(OC(=O)C(O)(c2ccccc2)C2CCCC2)C1 (stereo not drawn) [GLYCOPYRRONIUM BROMIDE] to recorded AC50 (system: UniProt:P30556)
[A] > 30 µM
